biological target: human Cytochrome 2D6 (CYP2D6) (Homo sapiens)
Sequence (P10635 whole entry): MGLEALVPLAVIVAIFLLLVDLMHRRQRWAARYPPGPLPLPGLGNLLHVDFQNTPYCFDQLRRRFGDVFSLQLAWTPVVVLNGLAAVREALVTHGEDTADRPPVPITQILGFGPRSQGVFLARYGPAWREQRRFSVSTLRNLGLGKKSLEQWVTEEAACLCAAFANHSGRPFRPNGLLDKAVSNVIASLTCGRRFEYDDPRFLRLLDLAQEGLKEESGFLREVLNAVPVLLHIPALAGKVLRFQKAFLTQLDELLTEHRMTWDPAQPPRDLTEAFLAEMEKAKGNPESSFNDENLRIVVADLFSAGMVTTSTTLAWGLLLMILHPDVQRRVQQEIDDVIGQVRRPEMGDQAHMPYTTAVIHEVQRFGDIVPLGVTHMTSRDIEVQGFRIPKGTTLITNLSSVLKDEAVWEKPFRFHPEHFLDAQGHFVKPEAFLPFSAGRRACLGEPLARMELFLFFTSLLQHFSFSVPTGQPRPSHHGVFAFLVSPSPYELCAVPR
measure: IC50 (µM)
Kindly provide the numeric value in µM only, without the unit symbol.

Task item: Provide IC50, system human Cytochrome 2D6 (CYP2D6) (Homo sapiens), entry C[C@H]1CN(CC[C@H](O)C2CCCCC2)CC[C@@]1(C)c1cccc(C(N)=O)c1 (stereo in doubt)
Reply: 39

* * *

test: Bioavailability in rat (Table 2); settings: in vivo, read-out: Metabolis Rat (bioavailability)
measure: bioavailability (%)
Kindly provide the numeric value in % only, without the unit symbol.

Task item: Give bioavailability for the following molecule: C[C@H]1CN(CC[C@H](O)C2CCCCC2)CC[C@@]1(C)c1cccc(C(N)=O)c1 (stereo in doubt)
Reply: 32
